- assay_info: MRT in Sprague-Dawley rat at 1 mg/kg, iv by LC-ESI-MS analysis
- Format: ADME, organism-based
- condition_set: in vivo
measured_property: MRT (h)
One number for each entry, in h.

Exercise: Identify the reported MRT for the following entry. CC#C[C@@H](CC(=O)O)c1ccc(OC[C@H]2COc3ccc(Cl)cc3O2)cc1
Key: 17.9

###

- target_or_system: Cytochrome P450 1A2 (Homo sapiens, UniProt P05177)
- Sequence (P05177 whole entry): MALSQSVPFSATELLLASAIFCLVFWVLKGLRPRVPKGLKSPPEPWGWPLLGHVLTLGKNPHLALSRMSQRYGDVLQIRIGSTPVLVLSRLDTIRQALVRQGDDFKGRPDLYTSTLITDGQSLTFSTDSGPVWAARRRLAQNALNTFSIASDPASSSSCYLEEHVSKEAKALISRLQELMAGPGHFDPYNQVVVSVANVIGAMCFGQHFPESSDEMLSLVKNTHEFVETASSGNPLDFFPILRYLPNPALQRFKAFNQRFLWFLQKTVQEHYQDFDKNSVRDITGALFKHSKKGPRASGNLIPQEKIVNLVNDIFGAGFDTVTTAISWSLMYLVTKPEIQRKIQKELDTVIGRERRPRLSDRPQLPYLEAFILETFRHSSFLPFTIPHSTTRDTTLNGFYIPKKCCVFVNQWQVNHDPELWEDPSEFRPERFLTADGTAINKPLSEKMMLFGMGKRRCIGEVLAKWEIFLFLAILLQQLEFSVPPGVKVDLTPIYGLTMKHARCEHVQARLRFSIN
pIC50: −log10 of the molar value.
measured_property: pIC50

Exercise: Identify the reported pIC50 for the following entry. CC#C[C@@H](CC(=O)O)c1ccc(OC[C@H]2COc3ccc(Cl)cc3O2)cc1
Key: < 4.00

###

- assay_info: Tmax in Sprague-Dawley rat at 3 mg/kg, po by LC-ESI-MS analysis
- Assay type: ADME, organism-based
- condition_set: in vivo
measured_property: Tmax (h)
Answers are plain numbers, in h.

Exercise: Identify the reported Tmax for the following entry. CC#C[C@@H](CC(=O)O)c1ccc(OC[C@H]2COc3ccc(Cl)cc3O2)cc1
Key: 3

###

- target_or_system: Free fatty acid receptor 1 (Homo sapiens)
- assay_info: Agonist activity at human GPR40 expressed in human HEK293 cells assessed as increase in intracellular calcium flux after 10 mins by fluorescence assay
- Assay type: functional, cell-based
measured_property: pEC50
Give bare numbers, as −log10 of the molar value.

Field: example entries. Status: answers known.
O=C(O)CC1(c2ccc(OCC3COc4ccc(Cl)cc4O3)cc2)COC1 (stereo unspecified) : 5.09
Cn1ccnc1C(CC(=O)O)c1ccc(OCC2COc3ccc(Cl)cc3O2)cc1 (stereo unspecified) : 5.23
COc1ccc2c(c1)OC(COc1ccc(CCC(=O)O)c(F)c1)CC2 (stereo unspecified) : 5.68

# batch size: 3; output pEC50 per entry
1. O=C(O)CCc1ccc(OCC2COc3ccc(Br)cc3O2)cc1F (stereo unspecified)
2. CC#C[C@@H](CC(=O)O)c1ccc(OC[C@H]2COc3ccc(C)cc3O2)cc1
3. CC#C[C@@H](CC(=O)O)c1ccc(OC[C@H]2COc3ccc(C#N)cc3O2)cc1

Key:
1: 5.65; 2: 6.92; 3: 5.68

###

- target_or_system: Free fatty acid receptor 1 (Homo sapiens, UniProt O14842)
- Sequence (O14842 whole entry): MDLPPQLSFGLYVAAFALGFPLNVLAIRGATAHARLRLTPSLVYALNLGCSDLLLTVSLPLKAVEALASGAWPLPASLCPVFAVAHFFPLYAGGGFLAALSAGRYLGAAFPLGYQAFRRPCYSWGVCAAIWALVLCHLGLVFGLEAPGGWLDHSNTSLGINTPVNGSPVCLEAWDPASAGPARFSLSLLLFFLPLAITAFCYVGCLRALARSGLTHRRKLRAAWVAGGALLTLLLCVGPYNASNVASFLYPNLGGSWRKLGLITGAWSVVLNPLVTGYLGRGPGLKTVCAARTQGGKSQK
- assay_info: Agonist activity at human GPR40 expressed in human HEK293 cells assessed as increase in intracellular calcium flux after 10 mins by fluorescence assay relative to linoleic acid
- Format: functional, cell-based
Give measured Emax for each item. Keep answers brief.
Be sure to follow the number with its unit.

CC#C[C@@H](CC(=O)O)c1ccc(OC[C@H]2COc3cc(Cl)c(Cl)cc3O2)cc1 : 33%
CC#C[C@@H](CC(=O)O)c1ccc(OC[C@H]2COc3ccc(OC)cc3O2)cc1 : 91%
Cn1cncc1C(CC(=O)O)c1ccc(OCC2COc3ccc(Cl)cc3O2)cc1 (stereo not given) : 62%
O=C(O)CC(c1ccc(OCC2COc3ccc(Cl)cc3O2)cc1)c1cnco1 (stereo not given) : 63%
CC#C[C@@H](CC(=O)O)c1ccc(OC[C@H]2COc3ccc(C(=O)N(C)C)cc3O2)cc1 : 32%

# batch size: 4; output Emax per entry
1. CC#C[C@@H](CC(=O)O)c1ccc(OC[C@H]2COc3ccc(OC(C)C)cc3O2)cc1
2. CC#C[C@@H](CC(=O)O)c1ccc(OC[C@H]2COc3cc(Br)c(Cl)cc3O2)cc1
3. O=C(O)CCc1ccc(OCC2COc3ccc(Cl)cc3O2)cc1F (stereo not given)
4. CC#C[C@@H](CC(=O)O)c1ccc(OC[C@H]2COc3ccc(CO)cc3O2)cc1

Key:
1: 90%; 2: 82%; 3: 50%; 4: 42%
